System: Velvetleaf
Experiment: post-emergent herbicidal activity, greenhouse
Format: in vivo
Details: Table II, 4 WAT, 5.6 kg/h
post-emergent herbicidal activity index values by entry
Recorded endpoint: post-emergent herbicidal activity index

> print(dat)
                                    molecule     measured.result
 1  CCCCCOC(=O)CNCP(=O)(O)OC(C)C#N (stereo not shown) [Example 6, hemihydrate]  3 (75-99% control)
 2  CCOC(=O)CNCP(=O)(O)OC(C)C#N (stereo not shown) [Example 5]    4 (100% control)
 3  CCOCCOC(=O)CNCP(=O)(O)OC(C)C#N (stereo not shown) [Example 9]  3 (75-99% control)
 4  CC(C#N)OP(=O)(O)CNCC(=O)OCc1ccccc1 (stereo not shown) [Example 10]  1 (25-49% control)
 5  CCOC(=O)CNCP(=O)(OC(C)C#N)OC(C)C#N (stereo not shown) [Example 1]    4 (100% control)
 6  CCOC(=O)CNCP(=O)(O)OC(C)C(=O)OC (stereo not shown) [Example 28]   0 (0-24% control)
 7  CCOC(=O)CNCP(=O)(O)OCC(Cl)(Cl)Cl [Example 27]  1 (25-49% control)
 8  CCOC(=O)CNCP(=O)(OC(C)CC(=O)OCC)OC(C)CC(=O)OCC (stereo not shown) [Example 15]   0 (0-24% control)
 9  CCOC(=O)CNCP(=O)(O)OC(C#N)CC (stereo not shown) [Example 8]  3 (75-99% control)
10  CC(C#N)OP(=O)(O)CNCC(=O)OCCCl (stereo not shown) [Example 7]  3 (75-99% control)

---

System: Lambsquarters
Assay: post-emergent herbicidal activity, greenhouse
Assay type: in vivo
Details: Table II, 4 WAT, 1.12 kg/h
Recorded endpoint: post-emergent herbicidal activity index

> print(dat)
                                    compound  assayed.system                        recorded.endpoint     measured.result
 1  CCOCCOC(=O)CNCP(=O)(O)OC(C)C#N (stereo not shown)   Lambsquarters  post-emergent herbicidal activity index    4 (100% control)
 2  CC(C#N)OP(=O)(O)CNCC(=O)OCCCl (stereo not shown)   Lambsquarters  post-emergent herbicidal activity index  2 (50-74% control)
 3    CCOC(=O)CNCP(=O)(OCCN1CCCC1)OCCN1CCCC1   Lambsquarters  post-emergent herbicidal activity index  1 (25-49% control)
 4  CCOC(=O)CNCP(=O)(O)OC(C)C#N (stereo not shown)   Lambsquarters  post-emergent herbicidal activity index    4 (100% control)
 5  CCOC(=O)CNCP(=O)(OC(C)C#N)OC(C)C#N (stereo not shown)   Lambsquarters  post-emergent herbicidal activity index  3 (75-99% control)
 6  CCOC(=O)CNCP(=O)(O)OC(C#N)CC (stereo not shown)   Lambsquarters  post-emergent herbicidal activity index  3 (75-99% control)
 7  CC(C#N)OP(=O)(CNCC#N)OC(C)C#N (stereo not shown)   Lambsquarters  post-emergent herbicidal activity index  2 (50-74% control)
 8  CCCCCOC(=O)CNCP(=O)(O)OC(C)C#N (stereo not shown) [Example 6, hemihydrate]   Lambsquarters  post-emergent herbicidal activity index  3 (75-99% control)
 9          CCOC(=O)CNCP(=O)(O)OCC(Cl)(Cl)Cl   Lambsquarters  post-emergent herbicidal activity index  2 (50-74% control)
10  CC(C#N)OP(=O)(O)CNCC(=O)OCc1ccccc1 (stereo not shown)   Lambsquarters  post-emergent herbicidal activity index  3 (75-99% control)

---

Tested on: Velvetleaf
Assay: post-emergent herbicidal activity, greenhouse
Type: in vivo
Conditions: Table II, 4 WAT, 1.12 kg/h
Recorded endpoint: post-emergent herbicidal activity index

> print(dat)
                                    compound     measured.result
 1          CCOC(=O)CNCP(=O)(O)OCC(Cl)(Cl)Cl  1 (25-49% control)
 2  CCCCCOC(=O)CNCP(=O)(O)OC(C)C#N (stereo not shown) [Example 6, hemihydrate]  2 (50-74% control)
 3  CCOC(=O)CNCP(=O)(O)OC(C)C#N (stereo not shown)  2 (50-74% control)
 4  CCOCCOC(=O)CNCP(=O)(O)OC(C)C#N (stereo not shown)  3 (75-99% control)
 5  CCOC(=O)CNCP(=O)(OC(C)C#N)OC(C)C#N (stereo not shown)  2 (50-74% control)
 6  CC(C#N)OP(=O)(O)CNCC(=O)OCc1ccccc1 (stereo not shown)  1 (25-49% control)
 7  CC(C#N)OP(=O)(CNCC#N)OC(C)C#N (stereo not shown)  1 (25-49% control)
 8    CCOC(=O)CNCP(=O)(OCCN1CCCC1)OCCN1CCCC1   0 (0-24% control)
 9  CC(C#N)OP(=O)(O)CNCC(=O)OCCCl (stereo not shown)  2 (50-74% control)
10  CCOC(=O)CNCP(=O)(O)OC(C#N)CC (stereo not shown)  3 (75-99% control)

---

Tested on: Johnsongrass
Experiment: post-emergent herbicidal activity, greenhouse
Assay type: in vivo
Conditions: Table I, 4 WAT, 56.0 kg/h
# maps each entry to its post-emergent herbicidal activity index
Recorded endpoint: post-emergent herbicidal activity index

> print(dat)
                                   compound  assayed.system     measured.result
1  CCOC(=O)CNCP(=O)(OC(CC(=O)OCC)C(=O)OCC)OC(CC(=O)OCC)C(=O)OCC (centres unmarked) [Example 14]    Johnsongrass  3 (75-99% control)
2  CCOC(=O)CNCP(=O)(OCC1COC(C)(C)O1)OCC1COC(C)(C)O1 (centres unmarked) [Example 22]    Johnsongrass  1 (25-49% control)
3  CCOC(=O)CNCP(=O)(OCc1ccco1)OCc1ccco1 [Example 21]    Johnsongrass   0 (0-24% control)
4  CCOC(=O)CNCP(=O)(OC(C)(C)C#N)OC(C)(C)C#N [Example 2]    Johnsongrass   0 (0-24% control)
5  CCOC(=O)CNCP(=O)(O)OCC(Cl)(Cl)Cl [Example 26]    Johnsongrass   0 (0-24% control)

---

System: Rice
Assay: post-emergent herbicidal activity, greenhouse
Type: in vivo
Settings: Table II, 4 WAT, 1.12 kg/h
Here, each record is paired with measured post-emergent herbicidal activity index data.
Recorded endpoint: post-emergent herbicidal activity index

> print(dat)
                                   compound  assayed.system     measured.result
1  CCOC(=O)CNCP(=O)(O)OC(C#N)CC (stereo not shown) [Example 8]            Rice  3 (75-99% control)
2  CCOC(=O)CNCP(=O)(O)OCC(Cl)(Cl)Cl [Example 27]            Rice  3 (75-99% control)
3  CCOC(=O)CNCP(=O)(OC(C)C#N)OC(C)C#N (stereo not shown) [Example 1]            Rice  1 (25-49% control)
4  CC(C#N)OP(=O)(CNCC#N)OC(C)C#N (stereo not shown) [Example 12]            Rice   0 (0-24% control)
5  CCOCCOC(=O)CNCP(=O)(O)OC(C)C#N (stereo not shown) [Example 9]            Rice  2 (50-74% control)
6  CCOC(=O)CNCP(=O)(O)OC(C)C#N (stereo not shown) [Example 5]            Rice  2 (50-74% control)
7  CCCCCOC(=O)CNCP(=O)(O)OC(C)C#N (stereo not shown) [Example 6, hemihydrate]            Rice  2 (50-74% control)

---

System: Smartweed
Experiment: post-emergent herbicidal activity, greenhouse
Type: in vivo
Conditions: Table I, 4 WAT, 5.6 kg/h
Listed here: items and their measured post-emergent herbicidal activity index.
Recorded endpoint: post-emergent herbicidal activity index

> print(dat)
                                   compound     measured.result
1  CCOC(=O)CNCP(=O)(OC(C)C(=O)OC)OC(C)C(=O)OC (stereo not drawn) [Example 18]   0 (0-24% control)
2  CCOC(=O)CNCP(=O)(OCCSC(=O)OCC)OCCSC(=O)OCC [Example 19]   0 (0-24% control)
3  CCOCCOC(=O)CNCP(=O)(O)OC(C)C#N (stereo not drawn) [Example 9]  2 (50-74% control)
4  CCOC(=O)CNCP(=O)(O)OC(C#N)CC (stereo not drawn) [Example 8]    4 (100% control)
5  CCOC(=O)CNCP(=O)(OCCN1CCCC1)OCCN1CCCC1 [Example 24]  2 (50-74% control)
6  CCOC(=O)CNCP(=O)(OC(C)C#N)OC(C)C#N (stereo not drawn) [Example 1]  3 (75-99% control)

---

post-emergent herbicidal activity index by entry:
System: Barnyardgrass
Test: post-emergent herbicidal activity, greenhouse
Assay type: in vivo
Settings: Table II, 4 WAT, 0.28 kg/h
Recorded endpoint: post-emergent herbicidal activity index

> print(dat)
                                   compound     measured.result
1  CCOCCOC(=O)CNCP(=O)(O)OC(C)C#N (stereo not drawn) [Example 9]  2 (50-74% control)
2  CCOC(=O)CNCP(=O)(OC(C)C#N)OC(C)C#N (stereo not drawn) [Example 1]  2 (50-74% control)
3  CC(C#N)OP(=O)(O)CNCC(=O)OCCCl (stereo not drawn) [Example 7]  2 (50-74% control)
